- target.under.test: T1, human GPC3 on CHO-K1-human GPC3 cells (CHOK1-hGPC3.2B5) (human, UniProt P51654 25-554)
- T1 construct: whole, on cells
- assay.explanation: FACS, CHOK1-hGPC3.2B5 cells;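 note: flow cytometry of humanized antibodies binding to the cells over one hour in the cold, read as cell mean fluorescence intensity, with EC50 obtained by curve fitting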
measurement.kind: Max MFI (MFI)
Respond with the bare value in MFI.

binder | measurement.kind | value.units | observed.value
hAb005LH3L1a (antibody, human IgG1, V domains shown, Humanized F3.54.12; VH H3 + VL L1a; expressed as human IgG1) VH: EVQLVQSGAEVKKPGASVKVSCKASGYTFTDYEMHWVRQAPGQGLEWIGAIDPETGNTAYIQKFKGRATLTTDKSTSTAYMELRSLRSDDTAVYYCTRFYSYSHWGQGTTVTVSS VL: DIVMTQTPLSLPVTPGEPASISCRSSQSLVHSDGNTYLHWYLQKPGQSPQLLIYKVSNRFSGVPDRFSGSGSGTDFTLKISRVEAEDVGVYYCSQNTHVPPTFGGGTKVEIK | Max MFI | MFI | 136
hAb007LH2L1b (antibody, human IgG1, V domains shown, Humanized F3.81.19; VH H2 + VL L1b; expressed as human IgG1) VH: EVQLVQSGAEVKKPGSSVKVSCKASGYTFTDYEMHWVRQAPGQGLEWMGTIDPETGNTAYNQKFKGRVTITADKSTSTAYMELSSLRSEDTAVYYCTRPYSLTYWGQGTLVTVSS VL: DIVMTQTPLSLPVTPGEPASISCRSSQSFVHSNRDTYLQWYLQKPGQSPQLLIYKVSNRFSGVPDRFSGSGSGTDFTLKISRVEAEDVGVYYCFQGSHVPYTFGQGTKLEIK | Max MFI | MFI | 6040
hAb007LH1L1d (antibody, human IgG1, V domains shown, Humanized F3.81.19; VH H1 + VL L1d; expressed as human IgG1) VH: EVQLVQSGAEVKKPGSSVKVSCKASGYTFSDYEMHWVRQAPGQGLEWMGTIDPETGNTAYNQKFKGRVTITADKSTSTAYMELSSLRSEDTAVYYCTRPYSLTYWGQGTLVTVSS VL: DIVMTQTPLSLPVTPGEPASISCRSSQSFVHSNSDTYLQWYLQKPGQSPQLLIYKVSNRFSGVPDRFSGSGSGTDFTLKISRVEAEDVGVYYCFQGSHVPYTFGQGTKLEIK | Max MFI | MFI | 18200
hAb007LH3L1 (antibody, human IgG1, V domains shown, Humanized F3.81.19; VH H3 + VL L1; expressed as human IgG1) VH: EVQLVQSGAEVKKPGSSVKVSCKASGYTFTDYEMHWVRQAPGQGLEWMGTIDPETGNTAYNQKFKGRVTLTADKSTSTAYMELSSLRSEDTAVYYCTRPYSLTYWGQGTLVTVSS VL: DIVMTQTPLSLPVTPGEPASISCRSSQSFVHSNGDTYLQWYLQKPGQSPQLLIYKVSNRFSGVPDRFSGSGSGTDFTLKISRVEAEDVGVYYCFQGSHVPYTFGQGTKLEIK | Max MFI | MFI | 6760
hAb007LH1L1b (antibody, human IgG1, V domains shown, Humanized F3.81.19; VH H1 + VL L1b; expressed as human IgG1) VH: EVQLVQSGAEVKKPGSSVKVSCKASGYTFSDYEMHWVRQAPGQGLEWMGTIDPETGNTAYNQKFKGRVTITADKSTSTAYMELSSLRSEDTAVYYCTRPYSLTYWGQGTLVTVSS VL: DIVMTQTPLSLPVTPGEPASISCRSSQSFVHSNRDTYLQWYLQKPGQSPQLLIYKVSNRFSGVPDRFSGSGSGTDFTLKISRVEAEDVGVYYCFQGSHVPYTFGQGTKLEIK | Max MFI | MFI | 6070

Enquiry: Sample hAb003LH1L1 (antibody, human IgG1, V domains shown, Humanized F2.154.1; VH H1 + VL L1; expressed as human IgG1) VH: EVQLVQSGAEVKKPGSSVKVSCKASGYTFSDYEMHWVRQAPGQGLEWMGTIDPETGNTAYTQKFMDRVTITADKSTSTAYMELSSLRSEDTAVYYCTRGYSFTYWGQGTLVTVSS VL: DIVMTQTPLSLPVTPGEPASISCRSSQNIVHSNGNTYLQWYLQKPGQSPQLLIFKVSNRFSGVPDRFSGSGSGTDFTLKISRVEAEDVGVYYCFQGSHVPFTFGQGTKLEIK — what was its Max MFI?
Return: 5220
